Where do these numbers come from? They come from PubChem BioAssay AID1259339.

# Test Details: TruHit bead signal quenchers or artefacts – biochemical, TruHit kit, artefact control, dose response (AID 1259339)
# Condition Label: TruHit alphaLISA kit signal interference counterscreen; series mostly up to 80 µM
Calls of active or inactive are those of the source.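 How the source made its calls: active means fitted AC50 no higher than ten times the top tested dose (cut at about 90 µM in these data); inconclusive means flat curve with 30 to 70% signal loss, or bad fit; inactive means AC50 beyond ten times the top dose.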
# valid calls are active, inactive; nothing else

Example cases with answers are listed next.
>>> print(df.to_string())
                                   molecule     group
0  CC1CCN(c2nc(-c3ccco3)c3c(c2C#N)CC(C)(C)OC3)CC1    active
1         O=C(COC(=O)c1ccc(F)cc1F)Nc1ncccn1  inactive
2        O=C1CS/C(=N\N=C\c2ccco2)N1c1ccccc1    active
3                    N#CNc1nc(O)cc(=O)[nH]1  inactive
4  O=C(Nc1nc(-c2ccccn2)cs1)c1cccc(-n2cnnn2)c1  inactive
5  NC(=O)C1(N2CCCCC2)CCN(c2ncc(NC(=O)c3ccc(F)cc3)cc2C(=O)O)CC1  inactive
6              O=C1C=C(c2ccccc2)Nc2ccccc2N1  inactive
7       O=C(NCc1ccco1)c1c2c(nc3ccccc13)CCC2    active

### Prompt Please share the test call associated with `NC(=O)C1(N2CCCCC2)CCN(c2ccc(NC(=O)c3ccccc3F)cc2C(=O)O)CC1` .
### Response inactive

### Prompt Please share the test call associated with `O=C(Nc1nnc(-c2ccco2)s1)c1ccccc1` .
### Response inactive

### Prompt Please share the test call associated with `COc1ccc(NC(=O)CN(C)C(=O)c2cc(-c3ccco3)nc3ccccc23)cc1` .
### Response active

### Prompt Please share the test call associated with `O=C(Nc1nc(-c2ccco2)c(-c2ccco2)s1)c1ccco1` .
### Response active

### Prompt Please share the test call associated with `O=C(CN1CCOC1=O)N1CCC2(CCC(=O)N(CCCn3ccnc3)C2)CC1` .
### Response inactive
